# Test system: RGS4
# experiment.summary: FCPIA: inhibition of Gαo binding to RGS4
readout.kind: selectivity for RGS4 versus RGS8

// for each compound below, give its selectivity for RGS4 versus RGS8
1. CCn1sc(=O)n(CCOC)c1=O [compound 13]
2. COc1ccc(Cn2c(=O)sn(-c3ccc(C)cc3)c2=O)cc1 [compound 7]

1. > 600 fold
2. > 1000 fold

---

# Tested on: RGS4
# experiment.summary: FCPIA: inhibition of Gαo binding to RGS4
Please provide measured selectivity for RGS4 versus RGS8 for the entries that follow.

Study these solved cases before continuing.
[
  {
    "smiles.structure": "Cc1ccc(-n2sc(=O)n(Cc3cccc(Cl)c3)c2=O)cc1",
    "target.desc": "RGS4",
    "result": "> 1000 fold"
  },
  {
    "smiles.structure": "Cc1ccc(Cn2c(=O)sn(-c3ccc(C)cc3)c2=O)cc1",
    "target.desc": "RGS4",
    "result": "> 1000 fold"
  }
]

Now take the following compound into account.
The compound Cc1ccc(-n2sc(=O)n(Cc3ccc(Cl)cc3)c2=O)cc1 showed selectivity for RGS4 versus RGS8 equal to > 1000 fold
